This collection of values is drawn from ChEMBL document CHEMBL2034855.

SYSTEM TESTED: UniProt:P10636
TEST DETAILS: Displacement of Thioflavin S from recombinant human tau expressed in Escherichia coli after 30 mins by fluorescence assay
MEASUREMENT KIND: Ki (nM)
Only the number, expressed in nM, is required.

TEST SMILES	Ki (nM)
CN(C)c1ccc(/N=N/c2nc3ccc(I)cc3s2)cc1	0.48

Now consider a different compound.
# input Given CN(C)c1ccc(/N=N/c2nc3ccc(OCCOCCOCCF)cc3s2)cc1 , respond with its Ki.
# output 13

----------
SYSTEM TESTED: Microtubule-associated protein tau (Homo sapiens)
Sequence (P10636 whole entry): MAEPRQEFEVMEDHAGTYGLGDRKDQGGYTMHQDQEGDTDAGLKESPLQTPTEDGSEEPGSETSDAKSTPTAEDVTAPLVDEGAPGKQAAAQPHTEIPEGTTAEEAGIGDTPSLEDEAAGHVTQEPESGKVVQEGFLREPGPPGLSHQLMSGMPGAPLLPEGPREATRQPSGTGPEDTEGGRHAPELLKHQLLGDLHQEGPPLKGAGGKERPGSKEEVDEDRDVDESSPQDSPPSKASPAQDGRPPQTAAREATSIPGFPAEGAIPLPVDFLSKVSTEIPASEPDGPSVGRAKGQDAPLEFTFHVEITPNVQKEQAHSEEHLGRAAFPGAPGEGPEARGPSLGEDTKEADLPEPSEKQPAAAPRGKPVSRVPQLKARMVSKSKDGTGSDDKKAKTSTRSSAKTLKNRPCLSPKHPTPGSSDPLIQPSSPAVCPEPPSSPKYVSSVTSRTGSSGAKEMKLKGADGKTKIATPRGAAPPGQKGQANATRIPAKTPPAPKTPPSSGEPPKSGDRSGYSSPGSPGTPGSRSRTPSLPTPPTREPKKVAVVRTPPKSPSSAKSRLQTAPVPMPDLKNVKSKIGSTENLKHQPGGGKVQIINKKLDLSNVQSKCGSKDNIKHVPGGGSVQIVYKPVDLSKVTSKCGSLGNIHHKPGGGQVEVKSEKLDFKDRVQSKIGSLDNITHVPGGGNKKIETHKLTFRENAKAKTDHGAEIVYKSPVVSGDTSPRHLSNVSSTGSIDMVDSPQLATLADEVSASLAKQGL
TEST DETAILS: Binding affinity to recombinant human tau expressed in Escherichia coli after 30 mins by fluorescence assay
MEASUREMENT KIND: pKd
Note on units: pKd is unitless, being -log10 of a concentration expressed in mol/L.

# input For CN(C)c1ccc(/N=N/c2nc3ccc(OCCOCCOCC[18F])cc3s2)cc1 , write its pKd.
# output 7.35
